Molecular target: Porcine ventricle myofibrils (ventricular myosin ATPase) (Sus scrofa, UniProt P79293)
Construct: Myofibrils from porcine cardiac muscle was isolated from the left ventricle of Yucatan minipigs; tissue Exemplar Genetics; host or cells: left ventricle of Yucatan minipigs, myofibrils prepared in house
Sequence (P79293 whole entry): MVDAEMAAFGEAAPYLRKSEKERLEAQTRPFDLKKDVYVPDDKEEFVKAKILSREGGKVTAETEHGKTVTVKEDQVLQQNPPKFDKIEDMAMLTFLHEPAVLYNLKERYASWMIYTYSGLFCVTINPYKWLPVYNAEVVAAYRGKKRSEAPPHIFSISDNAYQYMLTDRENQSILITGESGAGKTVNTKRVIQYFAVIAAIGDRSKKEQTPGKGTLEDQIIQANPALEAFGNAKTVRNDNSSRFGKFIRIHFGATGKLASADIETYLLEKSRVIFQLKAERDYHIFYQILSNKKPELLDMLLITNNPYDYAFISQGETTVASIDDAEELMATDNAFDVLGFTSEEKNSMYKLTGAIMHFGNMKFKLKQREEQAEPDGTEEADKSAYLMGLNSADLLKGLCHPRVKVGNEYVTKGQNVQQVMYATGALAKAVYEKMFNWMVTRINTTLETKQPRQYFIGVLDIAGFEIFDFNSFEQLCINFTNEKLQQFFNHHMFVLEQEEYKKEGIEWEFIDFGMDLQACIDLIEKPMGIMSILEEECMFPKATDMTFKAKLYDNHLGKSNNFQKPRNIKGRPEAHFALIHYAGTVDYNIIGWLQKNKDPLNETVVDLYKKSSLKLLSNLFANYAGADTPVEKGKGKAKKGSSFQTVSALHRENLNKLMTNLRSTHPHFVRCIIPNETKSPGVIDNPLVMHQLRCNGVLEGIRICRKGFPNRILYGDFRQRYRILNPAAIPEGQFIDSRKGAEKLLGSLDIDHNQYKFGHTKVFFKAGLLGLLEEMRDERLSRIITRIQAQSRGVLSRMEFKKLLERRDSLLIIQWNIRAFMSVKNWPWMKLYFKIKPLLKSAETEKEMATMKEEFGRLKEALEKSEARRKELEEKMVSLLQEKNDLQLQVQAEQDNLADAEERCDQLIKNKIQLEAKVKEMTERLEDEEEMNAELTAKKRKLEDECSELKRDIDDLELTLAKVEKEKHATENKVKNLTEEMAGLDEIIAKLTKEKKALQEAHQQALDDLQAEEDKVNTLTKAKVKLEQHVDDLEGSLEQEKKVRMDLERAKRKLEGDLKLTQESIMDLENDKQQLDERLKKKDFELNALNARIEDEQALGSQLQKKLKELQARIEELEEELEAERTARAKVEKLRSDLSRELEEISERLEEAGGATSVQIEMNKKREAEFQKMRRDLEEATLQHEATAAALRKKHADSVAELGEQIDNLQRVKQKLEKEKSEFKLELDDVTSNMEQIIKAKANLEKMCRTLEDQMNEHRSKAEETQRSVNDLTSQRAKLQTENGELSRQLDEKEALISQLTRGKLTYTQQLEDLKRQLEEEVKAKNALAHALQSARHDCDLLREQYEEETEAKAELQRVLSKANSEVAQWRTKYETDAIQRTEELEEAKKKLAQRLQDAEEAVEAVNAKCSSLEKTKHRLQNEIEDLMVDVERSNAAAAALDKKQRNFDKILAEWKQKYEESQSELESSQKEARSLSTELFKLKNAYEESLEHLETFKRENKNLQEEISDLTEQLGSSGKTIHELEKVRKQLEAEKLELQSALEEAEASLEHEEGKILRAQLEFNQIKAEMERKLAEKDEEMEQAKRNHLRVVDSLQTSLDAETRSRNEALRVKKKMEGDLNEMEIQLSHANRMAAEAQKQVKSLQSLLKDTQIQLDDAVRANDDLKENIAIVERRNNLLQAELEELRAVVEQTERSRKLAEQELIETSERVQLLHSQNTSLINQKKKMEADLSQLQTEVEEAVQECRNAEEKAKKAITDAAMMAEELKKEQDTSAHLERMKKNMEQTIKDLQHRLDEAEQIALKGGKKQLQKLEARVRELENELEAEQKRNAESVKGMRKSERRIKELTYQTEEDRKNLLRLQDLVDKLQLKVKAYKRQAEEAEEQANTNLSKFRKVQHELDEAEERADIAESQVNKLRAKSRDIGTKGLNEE
Experiment: Myofibril ATPase assay, porcine ventricle myofibrils
Type: biochemical, porcine (Yucatan minipigs)
Settings: porcine ventricle myofibrils; Y75 value
MEASUREMENT NAME: Ventricular EC25 (µM)

Here's what some known entries look like.
COMPOUND	DATA VALUE
C[C@H](NC(=O)[C@@H](C)c1cc2nc(C#N)ccc2[nH]c1=O)c1ccc(F)cc1F (single isomer, unassigned)	63.55
C[C@H](NC(=O)Cc1cc2c(F)nccc2[nH]c1=O)c1ccc(F)cc1F	0.53
COc1ccc([C@@H](C)NC(=O)Cc2c(C)c3c(C)nccc3[nH]c2=O)cc1 (single isomer, unassigned)	100.00
Cc1c(CC(=O)N[C@@H](C)c2cnc(C#N)nc2)c(=O)[nH]c2ccc(C(F)(F)F)nc12	100.00
Cc1nccc2[nH]c(=O)c(CC(=O)N[C@H]3CCc4cc(C#N)cnc43)c(C)c12 (single isomer, unassigned)	100.00

1 = Cc1c(CC(=O)N[C@@H](C)c2ccc(F)cc2F)c(=O)[nH]c2ccc(OC(F)(F)F)nc12
2 = Cc1c([C@H](C)C(=O)N[C@@H](C)c2ccc(F)cc2F)c(=O)[nH]c2ccnc(Cl)c12 (single isomer, unassigned)
When their Ventricular EC25 values are compared, which is larger, 1 or 2 ? Kindly state the label of the option you pick.
1
(1: 100.00 µM, 2: 1.48 µM)

====

Tested on: Rabbit Psoas myofibrils (skeletal myosin ATPase)
Assay: Myofibril ATPase assay, rabbit psoas (skeletal) myofibrils
Type: biochemical
Settings: rabbit psoas myofibrils; Y75 value
MEASUREMENT NAME: Skeletal EC25 (µM)

COMPOUND	DATA VALUE
Cc1c(CC(=O)N[C@H](CO)c2ncc(F)cc2F)c(=O)[nH]c2ccc(C#N)nc12	100.00

1 = Cc1c(CC(=O)N[C@@H](C)c2ccc(F)cc2F)c(=O)[nH]c2ccnc(N)c12
2 = Cc1nccc2[nH]c(=O)c(CC(=O)N[C@H](C)c3cccnc3O)c(C)c12 (single isomer, unassigned)
Returns the identifier with the smallest measured Skeletal EC25 among 1 and 2 . Kindly state the label of the option you pick.
1

====

Biological target: Porcine ventricle myofibrils (ventricular myosin ATPase) (Sus scrofa, UniProt P79293)
Construct: Myofibrils from porcine cardiac muscle was isolated from the left ventricle of Yucatan minipigs; tissue Exemplar Genetics; host or cells: left ventricle of Yucatan minipigs, myofibrils prepared in house
Test: Myofibril ATPase assay, porcine ventricle myofibrils
Format: biochemical, porcine (Yucatan minipigs)
Conditions: Y75 value (no ‡ mark); porcine ventricle myofibrils
Procedure: Example 1. Myofibril ATPase Assay Myofibril ATPase assays are known in the art to be useful in evaluating small molecules for the treatment of HCM and other cardiac indications. Myosin ATPase activity is assessed by using a coupled reaction system, in which ADP generated by the myosin ATPase function is coupled to the disappearance of NADH through the pyruvate kinase/lactate dehydrogenase (PK-LDH) system. […]
MEASUREMENT NAME: Ventricular EC25 (µM)

COMPOUND	MEASUREMENT NAME	DATA VALUE
C[C@H](NC(=O)C1(c2cc3c(F)c(F)ccc3[nH]c2=O)CC1)c1nccc(C#N)n1 (single isomer, unassigned)	Ventricular EC25	100.00

a = C[C@@H](NC(=O)C1(c2cc3c(F)c(F)ccc3[nH]c2=O)CC1)c1ccc(F)cc1F
b = C[C@@H](NC(=O)Cc1cc2c(F)cccc2[nH]c1=O)c1ccc(C#N)cn1
c = Cc1cc(C#N)nnc1[C@H](C)NC(=O)Cc1c(C)c2c(F)c(F)ccc2[nH]c1=O
Hello, I need these entries ordered by Ventricular EC25, highest reading first. Thanks! Put the labels in the requested order and list them out.
a, b, c
(a: 100.00 µM, b: 4.80 µM, c: 0.12 µM)

I = C[C@H](NC(=O)[C@H](C)c1c(C(F)(F)F)c2cc(F)ccc2[nH]c1=O)c1ccc(F)cc1F (single isomer, unassigned) [compound 58]
II = Cc1c(C2(C(=O)N[C@@H](C)c3ncc(C#N)cn3)CC2)c(=O)[nH]c2ccc(F)c(C#N)c12 (single isomer, unassigned)
Returns the identifier with the smallest measured Ventricular EC25 among I and II . Kindly state the label of the option you pick.
I
(I: 1.32 µM, II: 45.96 µM)

====

System: Rabbit Psoas myofibrils (skeletal myosin ATPase)
Experiment: Myofibril ATPase assay, rabbit psoas (skeletal) myofibrils
Format: biochemical
Details: Y75 value (no ‡ mark); rabbit psoas myofibrils
MEASUREMENT NAME: Skeletal EC25 (µM)

Here's what some known entries look like.
COMPOUND	Skeletal EC25 / µM
N#Cc1cc(F)c2c(c1)OC[C@H]2NC(=O)C1(c2cc3c(F)c(F)ccc3[nH]c2=O)CC1 (single isomer, unassigned)	20.88
Cc1c(C2(C(=O)N[C@H]3CCc4cc(C#N)cnc43)CC2)c(=O)[nH]c2ccc(F)cc12 (single isomer, unassigned)	100.00

I = Cc1c(C(F)(F)C(=O)N[C@H](C)c2cccc(C#N)n2)c(=O)[nH]c2ccc(F)cc12 (single isomer, unassigned)
II = Cc1c(CC(=O)N[C@H](C)c2ncc(C#N)cn2)c(=O)[nH]c2cccc(C#N)c12 (single isomer, unassigned)
Returns the identifier with the smallest measured Skeletal EC25 among I and II . Kindly state the label of the option you pick.
II

====

Test system: Rabbit Psoas myofibrils (skeletal myosin ATPase)
Experiment: Myofibril ATPase assay, rabbit psoas (skeletal) myofibrils
Assay type: biochemical
Conditions: Y75 value (no ‡ mark); rabbit psoas myofibrils
MEASUREMENT NAME: Skeletal EC25 (µM)

Here's what some known entries look like.
COMPOUND	Skeletal EC25 / µM
Cc1c(C(F)(F)C(=O)N[C@H](C)c2ncc(C#N)cn2)c(=O)[nH]c2ccc(F)c(C#N)c12 (single isomer, unassigned)	0.41
Cc1c(C(F)(F)C(=O)N[C@@H](C)c2ncc(F)cc2F)c(=O)[nH]c2ccc(F)cc12 (single isomer, unassigned)	0.11
C[C@H](NC(=O)Cc1cc2cc(F)ccc2[nH]c1=O)c1ccc(C#N)cn1	100.00
Cc1cc([C@@H](C)NC(=O)Cc2c(C)c3cc(F)ccc3[nH]c2=O)ncc1F	100.00
Cc1c(CC(=O)N[C@@H]2CCc3cc(C#N)cnc32)c(=O)[nH]c2ccc(F)cc12	0.36
C[C@@H](NC(=O)C(F)(F)c1cc2c(F)c(F)ccc2[nH]c1=O)c1cc(C#N)ccn1 (single isomer, unassigned)	6.04
C[C@@H](NC(=O)Cc1c(C#N)c2cc(F)ccc2[nH]c1=O)c1ncc(C#N)cc1F	2.26
C[C@@H](NC(=O)C(F)(F)c1cc2cc(F)ccc2[nH]c1=O)c1nccc(C#N)n1 (single isomer, unassigned)	100.00

1 = C[C@H](NC(=O)Cc1cc2c(F)c(F)ccc2[nH]c1=O)c1ncc(C#N)cn1 (single isomer, unassigned)
2 = Cc1c(C(F)(F)C(=O)N[C@@H](C)c2ccc(F)cc2F)c(=O)[nH]c2ccc(F)cc12
Returns the identifier with the smallest measured Skeletal EC25 among 1 and 2 . Kindly state the label of the option you pick.
2

A = Cc1nc(C#N)cnc1[C@@H](C)NC(=O)Cc1c(C)c2cc(F)ccc2[nH]c1=O
B = C[C@H](NC(=O)Cc1c(C(F)(F)F)c2cc(F)ccc2[nH]c1=O)c1ccc(F)cc1F
When their Skeletal EC25 values are compared, which is larger, A or B ? Kindly state the label of the option you pick.
A

P = Cc1c(CC(=O)N[C@H](C)c2ncc(C#N)cn2)c(=O)[nH]c2ccc(C#N)cc12 (single isomer, unassigned)
Q = Cc1ccc2[nH]c(=O)c(CC(=O)N[C@H](C)c3ncc(C#N)cn3)cc2c1F (single isomer, unassigned)
Returns the identifier with the smallest measured Skeletal EC25 among P and Q . Kindly state the label of the option you pick.
Q

====

Target: Porcine ventricle myofibrils (ventricular myosin ATPase) (Sus scrofa)
Construct: Myofibrils from porcine cardiac muscle was isolated from the left ventricle of Yucatan minipigs; tissue Exemplar Genetics; host or cells: left ventricle of Yucatan minipigs, myofibrils prepared in house
Experiment: Myofibril ATPase assay, porcine ventricle myofibrils
Type: biochemical, porcine (Yucatan minipigs)
Conditions: porcine ventricle myofibrils; Y75 value
MEASUREMENT NAME: Ventricular EC25 (µM)

a = Cc1nccc2[nH]c(=O)c([C@H](C)C(=O)N[C@@H](C)c3ccc(F)cc3F)c(C)c12 (single isomer, unassigned)
b = Cc1ccc([C@@H](CO)NC(=O)Cc2c(C)c3c(C)nccc3[nH]c2=O)cc1 (single isomer, unassigned)
c = Cc1ncc(C#N)nc1C(C)NC(=O)Cc1c(C)c2c(C)nccc2[nH]c1=O (stereo not shown)
d = C[C@@H](NC(=O)Cc1cc2c(C#N)nccc2[nH]c1=O)c1ccc(C#N)cn1
In this exercise, place the 4 compounds in ascending sequence of their recorded Ventricular EC25. Put the labels in the requested order and list them out.
d, c, a, b
